- Test system: HepG2
- experiment_notes: Cytotoxicity against Homo sapiens (human) HepG2 assessed as mitochondrial DNA level at 0.1 to 10 umol for 8 days by dot blot assay
- Assay type: cell-based
- condition_parameters: hepg2, 192 h

| compound | Activity |
| --- | --- |
| CSc1ccc(Sc2nc(N)nc3c2ncn3CCOCP(=O)(OCC(F)(F)F)OCC(F)(F)F)cc1 | Non-toxic |
| Nc1ccn([C@H]2CC[C@@H](CO)O2)c(=O)n1 [ZALCITABINE] | Toxic |
| CC(Cn1cnc2c(Sc3ccc4c(c3)CCO4)nc(N)nc21)OCP(=O)(OCC(F)(F)F)OCC(F)(F)F (centres undefined) | Non-toxic |
| COc1ccc(Sc2nc(N)nc3c2ncn3CCOCP(=O)(OCC(F)(F)F)OCC(F)(F)F)cc1F | Non-toxic |
